system-tested: T1, human D-dimer protein (human, UniProt P02671 124-216; P02675 164-491; P02679 89-437)
T1 construct: Bought from Abcam Inc. UK; the chain make-up here is from general knowledge
T1 sequence (looked up) 1: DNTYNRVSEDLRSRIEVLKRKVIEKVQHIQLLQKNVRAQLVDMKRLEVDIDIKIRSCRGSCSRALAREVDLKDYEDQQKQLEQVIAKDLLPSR
T1 sequence (looked up) 2: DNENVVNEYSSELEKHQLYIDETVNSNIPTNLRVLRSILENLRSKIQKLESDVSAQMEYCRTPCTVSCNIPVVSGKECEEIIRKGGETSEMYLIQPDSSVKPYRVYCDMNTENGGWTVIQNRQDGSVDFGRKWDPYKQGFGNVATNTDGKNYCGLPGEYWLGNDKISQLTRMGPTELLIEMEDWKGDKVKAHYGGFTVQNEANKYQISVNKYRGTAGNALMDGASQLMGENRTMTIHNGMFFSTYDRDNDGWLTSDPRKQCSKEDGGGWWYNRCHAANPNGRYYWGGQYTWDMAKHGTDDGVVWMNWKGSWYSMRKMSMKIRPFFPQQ
T1 sequence (looked up) 3: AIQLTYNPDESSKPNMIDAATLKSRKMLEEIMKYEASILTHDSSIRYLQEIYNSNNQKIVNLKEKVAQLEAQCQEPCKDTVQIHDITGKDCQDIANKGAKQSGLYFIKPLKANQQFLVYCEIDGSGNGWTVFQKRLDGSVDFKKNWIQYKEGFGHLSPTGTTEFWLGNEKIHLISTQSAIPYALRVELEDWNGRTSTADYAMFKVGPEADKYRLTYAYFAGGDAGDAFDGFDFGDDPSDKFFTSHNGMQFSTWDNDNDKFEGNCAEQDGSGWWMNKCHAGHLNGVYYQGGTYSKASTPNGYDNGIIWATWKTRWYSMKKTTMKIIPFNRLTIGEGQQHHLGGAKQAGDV
test-description: SPR screen (Biacore 2000), D-dimer immobilized on CM5, 1:1 Langmuir model
pKd: −log10 of the molar value. Side chains are listed from the residue outwards. Ends that are not written are not given here. Ahx = NCCCCCC(=O)O
The following binders are shown together with reported pKd values.

| binder | pKd |
| --- | --- |
| Ac-NAADLEAAIKHLAEALK([Gly-Ahx-Pro-Arg-Pro-Gly])ARGPVDAAQLAEQLARAFEAFARAG (designed binder, also: reporter on Lys10, 'D' in the name not explained) [2D10L17_GPRP] | 4.99 |
| Ac-NAADLEAAIRHLAERLAARGPVDAAQLAEQLAAK([Gly-Ahx-Pro-Arg-Pro-Gly])FEKFARAG (designed binder, also: reporter on Lys37, 'D' in the name not explained) [2D37L34_GPRP] | 4.87 |
| Ac-NEADLEAAIRHLAERLEARGPADAAQLAEQLAAK([Gly-Ahx-Pro-Arg-Pro-Gly])FEKFARAG (designed binder, also: reporter on Lys37, 'D' in the name not explained) [1D37L34_GPRP] | 5.29 |
| Ac-NAADLEAAIRHLAERLAARGPVDAAQLAEQLARK([Gly-Ahx-Pro-Arg-Pro-Gly])FEKFARAG (designed binder, also: reporter on Lys37, 'D' in the name not explained; a Cys in the loop region may be present) [3D37L34_GPRP] | 5.94 |
| Ac-NEADLEAAIRHLAEALAARGPK([Gly-Ahx-Pro-Arg-Pro-Gly])DAKQLAEQLARAFEAFARAG (designed binder, also: reporter on Lys25, 'D' in the name not explained) [2D25L22_GPRP] | 4.79 |
| Ac-NEADLEAK([Gly-Ahx-Pro-Arg-Pro-Gly])IRHLAEKLAARGPVDAAQLAEQLARAFEAFARAG (designed binder, also: reporter on Lys15, 'D' in place of 'C' in the name is not explained; tied to 2-C15L8 by the rest of the name) [2D15L8_GPRP] | 4.98 |
